- Test Details: Measurement of Log P values by HPLC on reversed phase columns (EEC directive 79/831 Annex V.A8)
- Format: physicochemical
- Condition Info: Table 1, compounds of formula (I); method [a]: LC-UV, acidic range, 0.1% formic acid in water and acetonitrile
Rule for this label: 1 means chromatographic logP is less than 3; 0 means chromatographic logP is at least 3.

>  <Compound>
Cc1ccc(Sc2nnc(C)c(C)c2C2=NOC[C@@H](c3ccc(C)s3)N2)c(C)c1 (racemic)

>  <Classification>
0

$$$$
>  <Compound>
Cc1ccc([C@H]2CON=C(c3c(Sc4ccc(F)c(Cl)c4)nnc(C)c3C)N2)s1 (racemic)

>  <Classification>
0

$$$$

Asked: For COc1ccc(Sc2nnc(C)c(C)c2C2=NOC[C@@H](c3ccc(C)s3)N2)cc1 (racemic) , is the recorded chromatographic logP below the cut-off of 3?
Given back: 1

Asked: For Cc1ccc(C[C@@H]2CON=C(c3cc(Cl)nnc3S(=O)(=O)c3ccc(C(F)(F)F)cc3)N2)c(C)c1 (racemic) , is the recorded chromatographic logP below the cut-off of 3?
Given back: 0

Asked: For Cc1cccc(Sc2cnc(C)nc2C2=NOC[C@@H](Cc3ccc(C)cc3Cl)N2)c1 (racemic) , is the recorded chromatographic logP below the cut-off of 3?
Given back: 0

Asked: For Cc1ccc([C@H]2CON=C(c3c(Sc4ccc(Cl)c(Cl)c4)nnc4ccccc34)N2)s1 (racemic) , is the recorded chromatographic logP below the cut-off of 3?
Given back: 0

Asked: For Cc1ccc(C)c(Sc2nnc(C)c(C)c2C2=NOC[C@H](c3cc(C)sc3C)N2)c1 (racemic) , is the recorded chromatographic logP below the cut-off of 3?
Given back: 0

Asked: For Cc1ccc([C@H]2CON=C(c3c(Sc4ccc(Cl)c(Cl)c4)nnc(C)c3C)N2)s1 (racemic) , is the recorded chromatographic logP below the cut-off of 3?
Given back: 0

Asked: For FC(F)(F)Oc1cccc(Sc2nnc(Cl)cc2C2=NOC[C@H](Cc3ccc(Cl)cc3Cl)N2)c1 (racemic) , is the recorded chromatographic logP below the cut-off of 3?
Given back: 0

Asked: For Cc1cc([C@@H]2CON=C(c3c(Sc4ccc(C(F)(F)F)cc4)nnc(C)c3C)N2)c(C)s1 (racemic) , is the recorded chromatographic logP below the cut-off of 3?
Given back: 0

Asked: For Cc1ccc([C@H]2CON=C(c3c(Sc4ccccc4)nnc(C)c3C)N2)s1 (racemic) , is the recorded chromatographic logP below the cut-off of 3?
Given back: 1

Asked: For COc1cccc(Sc2nnc3ccccc3c2C2=NOC[C@H](c3ccc(C)s3)N2)c1 (racemic) , is the recorded chromatographic logP below the cut-off of 3?
Given back: 0

Asked: For Cc1ccc([C@H]2CON=C(c3c(Sc4ccc(OC(F)(F)F)cc4)nnc4ccccc34)N2)s1 (racemic) , is the recorded chromatographic logP below the cut-off of 3?
Given back: 0

Asked: For COc1cccc(Sc2nnc3ccccc3c2C2=NOC[C@@H](Cc3ccc(C)cc3C)N2)c1 (racemic) , is the recorded chromatographic logP below the cut-off of 3?
Given back: 0

Asked: For Cc1ccc([C@H]2CON=C(c3c(Sc4cccc5ccccc45)nnc(C)c3C)N2)s1 (racemic) , is the recorded chromatographic logP below the cut-off of 3?
Given back: 0

----------
- Test Details: Measurement of Log P values by HPLC on reversed phase columns (EEC directive 79/831 Annex V.A8)
- Assay type: physicochemical
- Condition Info: Table 1, compounds of formula (I); method [a]: LC-UV, acidic range, 0.1% formic acid in water and acetonitrile
Assay Metric: chromatographic logP
Form: value (number only, do not type unit).

>  <Compound>
Cc1cc([C@@H]2CON=C(c3c(Sc4cccc(OC(F)(F)F)c4)nnc(C)c3C)N2)c(C)s1 (racemic)

>  <chromatographic logP>
3.83

$$$$
>  <Compound>
Cc1ccc([C@H]2CON=C(c3c(Sc4ccc(F)cc4)nnc4ccccc34)N2)s1 (racemic)

>  <chromatographic logP>
3.29

$$$$
>  <Compound>
Cc1ccc([C@H]2CON=C(c3c(Sc4ccc(F)cc4F)nnc4ccccc34)N2)s1 (racemic)

>  <chromatographic logP>
3.4

$$$$

Continue with the compound presented below.
Asked: Look up chromatographic logP for this compound: COc1cccc(Sc2cnc(C)nc2C2=NOC[C@H](Cc3ccc(C)cc3C)N2)c1 (racemic)
Given back: 4.67
